Consider the following compounds and their measured pIC50 readings.
Biological target: c-Met (Homo sapiens, UniProt P08581)
Construct: Kinases are expressed as either kinase domains or full length constructs; made in house
Sequence (P08581 25-1390): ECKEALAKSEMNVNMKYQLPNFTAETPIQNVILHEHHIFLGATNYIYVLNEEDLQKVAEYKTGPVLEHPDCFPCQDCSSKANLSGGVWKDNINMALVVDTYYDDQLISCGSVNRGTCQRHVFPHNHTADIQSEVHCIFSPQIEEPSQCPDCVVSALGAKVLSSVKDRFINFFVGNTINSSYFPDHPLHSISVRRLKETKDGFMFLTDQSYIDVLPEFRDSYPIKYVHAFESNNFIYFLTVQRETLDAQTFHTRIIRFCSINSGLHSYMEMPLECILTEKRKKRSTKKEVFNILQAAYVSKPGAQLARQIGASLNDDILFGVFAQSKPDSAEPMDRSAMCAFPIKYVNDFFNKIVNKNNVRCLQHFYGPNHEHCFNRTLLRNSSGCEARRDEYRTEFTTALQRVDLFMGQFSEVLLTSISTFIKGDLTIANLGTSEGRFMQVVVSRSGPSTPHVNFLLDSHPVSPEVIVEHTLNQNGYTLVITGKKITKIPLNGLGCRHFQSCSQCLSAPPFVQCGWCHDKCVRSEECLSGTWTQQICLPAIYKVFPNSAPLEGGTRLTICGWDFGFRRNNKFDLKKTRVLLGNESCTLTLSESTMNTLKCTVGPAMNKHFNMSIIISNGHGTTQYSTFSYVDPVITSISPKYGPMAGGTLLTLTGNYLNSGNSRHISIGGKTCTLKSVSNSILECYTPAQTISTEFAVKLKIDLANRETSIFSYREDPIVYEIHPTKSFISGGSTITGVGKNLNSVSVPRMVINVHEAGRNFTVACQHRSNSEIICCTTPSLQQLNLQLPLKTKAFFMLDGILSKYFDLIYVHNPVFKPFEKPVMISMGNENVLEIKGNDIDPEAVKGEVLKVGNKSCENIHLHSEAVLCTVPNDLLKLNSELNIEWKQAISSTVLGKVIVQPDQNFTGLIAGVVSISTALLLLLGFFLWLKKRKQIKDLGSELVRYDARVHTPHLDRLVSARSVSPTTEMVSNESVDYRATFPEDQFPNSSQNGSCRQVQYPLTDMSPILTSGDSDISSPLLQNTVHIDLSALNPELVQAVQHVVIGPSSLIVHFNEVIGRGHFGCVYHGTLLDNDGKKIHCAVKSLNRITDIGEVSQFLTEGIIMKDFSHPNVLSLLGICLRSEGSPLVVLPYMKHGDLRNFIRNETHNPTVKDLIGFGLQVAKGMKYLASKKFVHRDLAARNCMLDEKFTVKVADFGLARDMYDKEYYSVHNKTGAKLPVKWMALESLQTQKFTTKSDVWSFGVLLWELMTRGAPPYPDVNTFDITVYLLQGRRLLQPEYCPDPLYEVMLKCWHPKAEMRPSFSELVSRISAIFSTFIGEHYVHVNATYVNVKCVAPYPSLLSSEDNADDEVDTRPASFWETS
Test: Kinase inhibition assay (33P transfer), c-Met
Type: biochemical
Settings: Table 2, kinase inhibition class; read-out: Met-1
pIC50: −log10 of the molar value.
QUANTITY_MEASURED: pIC50

| COMPOUND | RESULT |
| --- | --- |
| O=[N+]([O-])c1cccc(Nc2ncnc(-c3cccs3)n2)c1 [Compound 352] | < 4.82 |
| COc1cc(CNc2ncnc(N(C)c3cccc(Cl)c3)n2)cc(OC)c1OC [Compound 747] | < 4.97 |
| Nc1ncnc(Nc2nc(-c3ccccc3)cs2)n1 [Compound 1020] | < 4.78 |

----------
Target: IGFR-1 (Homo sapiens)
Construct: Kinases are expressed as either kinase domains or full length constructs; made in house
Sequence (P08069 31-1367): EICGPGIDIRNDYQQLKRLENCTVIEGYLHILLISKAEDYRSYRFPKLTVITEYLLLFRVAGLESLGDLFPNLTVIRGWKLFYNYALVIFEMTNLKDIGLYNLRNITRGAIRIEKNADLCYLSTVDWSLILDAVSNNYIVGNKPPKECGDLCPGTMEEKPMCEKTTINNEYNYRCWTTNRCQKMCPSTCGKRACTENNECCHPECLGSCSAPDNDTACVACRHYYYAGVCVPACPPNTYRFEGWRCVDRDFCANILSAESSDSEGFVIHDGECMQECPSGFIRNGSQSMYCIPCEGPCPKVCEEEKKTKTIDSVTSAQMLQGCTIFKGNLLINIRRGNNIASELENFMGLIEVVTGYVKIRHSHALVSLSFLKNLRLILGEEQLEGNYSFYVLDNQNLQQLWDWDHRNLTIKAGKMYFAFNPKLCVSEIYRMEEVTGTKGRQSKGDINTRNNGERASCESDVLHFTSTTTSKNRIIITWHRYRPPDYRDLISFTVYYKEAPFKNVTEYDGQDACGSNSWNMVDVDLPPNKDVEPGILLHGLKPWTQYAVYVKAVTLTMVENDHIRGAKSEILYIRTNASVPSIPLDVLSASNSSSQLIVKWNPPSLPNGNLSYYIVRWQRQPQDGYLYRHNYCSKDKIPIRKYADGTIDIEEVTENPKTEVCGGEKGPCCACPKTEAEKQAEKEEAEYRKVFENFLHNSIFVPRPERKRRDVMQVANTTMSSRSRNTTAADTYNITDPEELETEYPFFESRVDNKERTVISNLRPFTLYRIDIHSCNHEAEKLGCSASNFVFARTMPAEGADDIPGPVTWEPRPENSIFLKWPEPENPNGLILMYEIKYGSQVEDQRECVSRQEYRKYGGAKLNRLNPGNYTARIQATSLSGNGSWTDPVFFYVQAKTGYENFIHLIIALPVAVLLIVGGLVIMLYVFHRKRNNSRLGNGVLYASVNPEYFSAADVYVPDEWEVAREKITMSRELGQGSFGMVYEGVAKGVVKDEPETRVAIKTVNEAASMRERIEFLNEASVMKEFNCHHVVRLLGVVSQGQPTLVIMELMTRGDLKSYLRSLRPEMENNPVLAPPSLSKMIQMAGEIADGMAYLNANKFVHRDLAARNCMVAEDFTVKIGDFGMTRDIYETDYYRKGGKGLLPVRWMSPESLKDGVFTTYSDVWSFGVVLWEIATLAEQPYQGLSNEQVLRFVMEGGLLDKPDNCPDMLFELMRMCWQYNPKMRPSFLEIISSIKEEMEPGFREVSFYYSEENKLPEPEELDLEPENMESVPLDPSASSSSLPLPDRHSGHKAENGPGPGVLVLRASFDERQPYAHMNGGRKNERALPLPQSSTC
Assay: Kinase inhibition assay, IGFR-1 (Table 2)
Type: biochemical
Conditions: Table 2, kinase inhibition class
pIC50: −log10 of the molar value.
QUANTITY_MEASURED: pIC50

| MOLECULE | RESULT |
| --- | --- |
| COc1cc(Nc2ncnc(-n3c(NCc4cccc(Br)c4)nc4ccccc43)n2)cc(OC)c1OC [Compound 946] | 5.21 to 5.37 |
| CN(c1cccc(Cl)c1)c1ncnc(N(C)c2cccc(Cl)c2)n1 [Compound 702] | < 4.90 |
| COc1cc(Nc2ncnc(-n3c(Nc4ccccc4C(C)C)nc4ccccc43)n2)cc(OC)c1OC [Compound 1049] | < 5.06 |
| COc1cc(Nc2ncnc(-n3c(NCc4ccccc4F)nc4ccccc43)n2)cc(OC)c1OC [Compound 512] | < 5.05 |
| Cc1ccc2c(c1)CCCN2c1ncnc(NCc2cccnc2)n1 [Compound 777] | < 4.87 |
| COc1ccc([C@H](C)Nc2nc3ccccc3n2-c2ncnc(Nc3cc(OC)c(OC)c(OC)c3)n2)cc1 [Compound 1046] | < 5.07 |
| CN(c1cccc(Cl)c1)c1ncnc(Nc2cc(C(C)(C)C)on2)n1 [Compound 754] | < 4.90 |
| CCc1cccc(Nc2ncnc(-n3c(N)nc4ccccc43)n2)c1 [Compound 655] | > 5.92 |
| COc1cc(Nc2ncnc(-n3c(N[C@@H](C)c4ccccc4)nc4ccccc43)n2)cc(OC)c1OC [Compound 1033] | < 5.04 |
| CC(=O)NS(=O)(=O)c1ccc(Nc2ncnc(N(C)c3cccc(Cl)c3)n2)cc1 [Compound 751] | < 4.98 |
| COc1ccc(Nc2ncnc(N(C)c3cccc(Cl)c3)n2)cc1OC [Compound 621] | 5.03 to 5.19 |
| COc1cc(Nc2ncnc(-n3c(NCc4ncc[nH]4)nc4ccccc43)n2)cc(OC)c1OC [Compound 583] | 5.30 to 6.07 |
| c1ccc(Cn2ncc3cc(Nc4ncnc(Nc5ccc(N6CCCCC6)cc5)n4)ccc32)cc1 [Compound 735] | 5.02 to 5.13 |
| COc1cccc(Nc2ncnc(N(C)c3cccc(Cl)c3)n2)c1 [Compound 741] | < 4.88 |
| CCN(CC)CCOc1cc(Nc2ncnc(Nc3cc(OC)c(OC)c(OC)c3)n2)ccc1OC [Compound 600] | < 5.04 |

----------
Target: ErbB2 (Homo sapiens)
Sequence (P04626 23-1255, species assumed): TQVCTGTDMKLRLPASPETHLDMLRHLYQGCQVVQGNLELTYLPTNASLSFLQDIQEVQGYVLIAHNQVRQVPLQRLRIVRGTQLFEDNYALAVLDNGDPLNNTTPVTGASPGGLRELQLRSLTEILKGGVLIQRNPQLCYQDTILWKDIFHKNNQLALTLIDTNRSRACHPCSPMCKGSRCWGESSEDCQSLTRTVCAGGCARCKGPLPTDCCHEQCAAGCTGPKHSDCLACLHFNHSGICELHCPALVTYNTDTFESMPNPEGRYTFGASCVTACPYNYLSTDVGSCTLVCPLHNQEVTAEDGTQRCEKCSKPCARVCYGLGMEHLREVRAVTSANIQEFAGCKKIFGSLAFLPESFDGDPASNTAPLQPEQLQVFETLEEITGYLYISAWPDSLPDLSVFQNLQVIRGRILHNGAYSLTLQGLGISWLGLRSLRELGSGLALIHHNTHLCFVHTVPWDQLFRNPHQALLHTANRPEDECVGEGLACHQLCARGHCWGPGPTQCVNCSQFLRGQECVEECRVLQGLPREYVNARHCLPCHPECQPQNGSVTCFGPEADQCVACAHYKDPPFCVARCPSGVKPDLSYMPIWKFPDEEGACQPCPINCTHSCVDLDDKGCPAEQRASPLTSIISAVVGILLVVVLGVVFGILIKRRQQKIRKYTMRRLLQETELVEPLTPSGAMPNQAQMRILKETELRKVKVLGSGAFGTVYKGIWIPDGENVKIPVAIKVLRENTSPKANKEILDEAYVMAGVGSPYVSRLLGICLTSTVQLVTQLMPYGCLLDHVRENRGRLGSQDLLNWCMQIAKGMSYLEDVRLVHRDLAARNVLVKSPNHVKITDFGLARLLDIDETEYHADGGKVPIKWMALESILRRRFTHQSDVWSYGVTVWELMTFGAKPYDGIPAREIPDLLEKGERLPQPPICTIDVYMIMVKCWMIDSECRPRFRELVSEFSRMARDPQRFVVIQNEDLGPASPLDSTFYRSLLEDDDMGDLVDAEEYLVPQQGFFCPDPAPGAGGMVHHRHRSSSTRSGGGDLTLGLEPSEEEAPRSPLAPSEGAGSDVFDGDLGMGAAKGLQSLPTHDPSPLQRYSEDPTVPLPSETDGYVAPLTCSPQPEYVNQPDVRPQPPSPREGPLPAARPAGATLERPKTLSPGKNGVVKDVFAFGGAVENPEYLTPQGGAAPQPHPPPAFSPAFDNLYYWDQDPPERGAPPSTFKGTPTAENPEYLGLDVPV
pIC50: −log10 of the molar value.
Consider the following compounds and their measured pIC50 readings.
QUANTITY_MEASURED: pIC50

| QUERY_SMILES | RESULT |
| --- | --- |
| Nc1nc2ccccc2n1-c1ncnc(Nc2ccccn2)n1 | < 4.83 |
| COc1cc(Nc2ncnc(-n3c(Nc4cccc(F)c4)nc4ccccc43)n2)cc(OC)c1OC | < 5.03 |
| COc1cc(Nc2ncnc(-n3c(NCc4ccc(N(C)C)cc4)nc4ccccc43)n2)cc(OC)c1OC | 5.18 to 5.34 |
| COc1ccc(Nc2ncnc(NC[C@@H]3CCCO3)n2)cc1OC | 5.14 to 5.92 |
| CN(c1cccc(Cl)c1)c1ncnc(-n2c(N)nc3ccccc32)n1 | 5.17 to 5.94 |
